# Tested on: primary human pancreatic stellate cells
# ASSAY METHOD TEXT: Meflin gene (ISLR) expression by qPCR after retinoid treatment (Example 4)
# Assay type: cell-based
# CONDITION: relative expression level, control (DMSO-treated cells) = 1, retinoid 1 μM, 48 hours
Property: ISLR expression level (mean value); scope: individual compounds

Q: For primary human pancreatic stellate cells, give ISLR expression level (mean value) of the listed compound: CC(=O)OC/C=C(C)/C=C/C=C(C)/C=C/C1=C(C)CCCC1(C)C [Retinyl acetate, retinyl acetate]
Ans: 3.29

Q: For primary human pancreatic stellate cells, give ISLR expression level (mean value) of the listed compound: CC1(C)CCC(C)(C)c2cc(C(=O)Nc3ccc(C(=O)O)cc3)ccc21
Ans: 3625.326

Q: For primary human pancreatic stellate cells, give ISLR expression level (mean value) of the listed compound: COc1cc(C)c(/C=C/C(C)=C/C=C/C(C)=C/C(=O)O)c(C)c1C
Ans: 47.59

Q: For primary human pancreatic stellate cells, give ISLR expression level (mean value) of the listed compound: CC1=C(/C=C/C(C)=C/C=C/C(C)=C\C(=O)O)C(C)(C)CCC1 [13-cis Retinoic, 13-cis-retinoic acid]
Ans: 7.252

====

# Test system: primary mouse mesenchymal stem cells
# ASSAY METHOD TEXT: Meflin gene (Islr) expression by qPCR after retinoid treatment (Example 4)
# Type: cell-based
# CONDITION: relative expression level, control (DMSO-treated cells) = 1, retinoid 1 μM, 48 hours
Label 1 (yes) for high-side ISLR expression level (mean value) (at or above 5) and 0 (no) for low-side ISLR expression level (mean value) (below it).

Worked examples follow.
{"COMPOUND": "CC1(C)CCC(C)(C)c2cc(C(=O)Nc3ccc(C(=O)O)cc3)ccc21", "CLASSIFICATION": "1 (yes)"}
{"COMPOUND": "CC1=C(/C=C/C(C)=C/C=C/C(C)=C/C(=O)O)C(C)(C)CCC1 [ATRA, all-trans retinoic acid]", "CLASSIFICATION": "0 (no)"}
{"COMPOUND": "COc1ccc(-c2ccc3cc(C(=O)O)ccc3c2)cc1C12CC3CC(CC(C3)C1)C2", "CLASSIFICATION": "1 (yes)"}
{"COMPOUND": "COc1cc(C)c(/C=C/C(C)=C/C=C/C(C)=C/C(=O)O)c(C)c1C", "CLASSIFICATION": "1 (yes)"}
{"COMPOUND": "CC1=C(/C=C/C(C)=C/C=C/C(C)=C/C(=O)O)C(C)(C)CCC1O (stereo not drawn) [4-Hydroxyretinoic acid, 4-hydroxyretinoic acid]", "CLASSIFICATION": "0 (no)"}

Q: Is it the case that C/C(=C\c1ccc(C(=O)O)cc1)c1ccc2c(c1)C(C)(C)CCC2(C)C has ISLR expression level (mean value) reaching or exceeding 5?
Ans: 1 (yes)

====

Property: ISLR expression level (mean value); scope: individual compounds
# System: primary human pancreatic stellate cells
# ASSAY METHOD TEXT: Meflin gene (ISLR) expression by qPCR after retinoid treatment (Example 4)
# Format: cell-based
# CONDITION: relative expression level, control (DMSO-treated cells) = 1, retinoid 1 μM, 48 hours
Would you mind answering with just the numeric figure?

# count of solved cases: 4
{"COMPOUND": "CC1=C(/C=C/C(C)=C\\C=C\\C(C)=C\\C(=O)O)C(C)(C)CCC1 [9-cis Retinoic acid, 9-cis-retinoic acid]", "ISLR expression level (mean value)": 4.894}
{"COMPOUND": "CC1=C(/C=C/C(C)=C/C=C/C(C)=C/C(=O)O)C(C)(C)CCC1 [ATRA, all-trans retinoic acid]", "ISLR expression level (mean value)": 217.5011}
{"COMPOUND": "C/C(=C\\c1ccc(C(=O)O)cc1)c1ccc2c(c1)C(C)(C)CCC2(C)C", "ISLR expression level (mean value)": 15.94}
{"COMPOUND": "CC(C)(c1ccc(OCC2CO2)cc1)c1ccc(OCC2CO2)cc1 (centres unmarked)", "ISLR expression level (mean value)": 5089.576}

Pending compound:
Q: Give the reported value of ISLR expression level (mean value) for this record: CC1=C(/C=C/C(C)=C/C=C/C(C)=C/C(=O)O)C(C)(C)CCC1O (centres unmarked) [4-Hydroxyretinoic acid, 4-hydroxyretinoic acid]
Ans: 3.264
